B1: library; a variant is named by its letters at N, in order (parent)
chain: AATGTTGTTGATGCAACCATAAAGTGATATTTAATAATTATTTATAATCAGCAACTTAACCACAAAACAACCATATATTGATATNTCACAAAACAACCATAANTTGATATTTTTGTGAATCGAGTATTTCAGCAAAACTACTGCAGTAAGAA

Variants of: B1
Assay: relative integration efficiency (T-LR orientation) vs wild-type transposon end (log2 (normalized fold change)); transposon end mutated: left end; higher = more efficient transposition
Details: with VchCAST RNA-guided transposition machinery (E. coli BL21(DE3) host, lacZ target)
Each entry gets False if its relative integration efficiency (log2) stays under -0.4, and True if its relative integration efficiency (log2) is -0.4 or above.

Enquiry: Would you say CG T12A G13A T31C T32A A77C T86G shows relative integration efficiency (log2) at minimum -0.4?
Return: False

Enquiry: Would you say CG A29T A83T A109T shows relative integration efficiency (log2) at minimum -0.4?
Return: False

Enquiry: Would you say CG C14G shows relative integration efficiency (log2) at minimum -0.4?
Return: False

Enquiry: Would you say CG A64C shows relative integration efficiency (log2) at minimum -0.4?
Return: False

Enquiry: Would you say CG A58C A59C C60A C61A shows relative integration efficiency (log2) at minimum -0.4?
Return: True

Enquiry: Would you say CA A16C G24T T30A T104A T110A T113A shows relative integration efficiency (log2) at minimum -0.4?
Return: False

Enquiry: Would you say CG G117C shows relative integration efficiency (log2) at minimum -0.4?
Return: False

Enquiry: Would you say CG C61G shows relative integration efficiency (log2) at minimum -0.4?
Return: True

Enquiry: Would you say CG A53T A54T shows relative integration efficiency (log2) at minimum -0.4?
Return: True

Enquiry: Would you say CG A37C T38G shows relative integration efficiency (log2) at minimum -0.4?
Return: True

Enquiry: Would you say CG C61G A62T shows relative integration efficiency (log2) at minimum -0.4?
Return: True

Enquiry: Would you say CG G117C A118T A119T T120A shows relative integration efficiency (log2) at minimum -0.4?
Return: True

Enquiry: Would you say CG A81G shows relative integration efficiency (log2) at minimum -0.4?
Return: True

Enquiry: Would you say GG T86A C87G A88T shows relative integration efficiency (log2) at minimum -0.4?
Return: True

Enquiry: Would you say CG T120C shows relative integration efficiency (log2) at minimum -0.4?
Return: True

Enquiry: Would you say CG A99C shows relative integration efficiency (log2) at minimum -0.4?
Return: False

Enquiry: Would you say CG A40T T41A T42A T43A shows relative integration efficiency (log2) at minimum -0.4?
Return: True

Enquiry: Would you say CA A22T G24T T31C A33C T104A T110A T113A shows relative integration efficiency (log2) at minimum -0.4?
Return: False

Enquiry: Would you say TA A23G G24T A33T T76A T78A T84A C87A A96C T112G T113C shows relative integration efficiency (log2) at minimum -0.4?
Return: True

Enquiry: Would you say CG A44G A46G T48G A50G C52A A53T C55A T56C T57A shows relative integration efficiency (log2) at minimum -0.4?
Return: False

Enquiry: Would you say CG A107C T108G A109C T110G shows relative integration efficiency (log2) at minimum -0.4?
Return: False

Enquiry: Would you say TA A70C T76A T84A C87A T104G T113A shows relative integration efficiency (log2) at minimum -0.4?
Return: True

Enquiry: Would you say CG T42G T43G shows relative integration efficiency (log2) at minimum -0.4?
Return: True

Enquiry: Would you say CG T57G shows relative integration efficiency (log2) at minimum -0.4?
Return: False

Enquiry: Would you say CG C68A shows relative integration efficiency (log2) at minimum -0.4?
Return: True

Enquiry: Would you say CG T112C shows relative integration efficiency (log2) at minimum -0.4?
Return: True

Enquiry: Would you say TA A23G G24T A33T T76A T78A T84A C87A A96C T110A T113A shows relative integration efficiency (log2) at minimum -0.4?
Return: True

Enquiry: Would you say CG T25C shows relative integration efficiency (log2) at minimum -0.4?
Return: True

Enquiry: Would you say CG T39C shows relative integration efficiency (log2) at minimum -0.4?
Return: True

Enquiry: Would you say TA A16C G24T T30A A70C T76A T84A C87A A96C T110A T113A shows relative integration efficiency (log2) at minimum -0.4?
Return: False

Enquiry: Would you say CG A99C T100G shows relative integration efficiency (log2) at minimum -0.4?
Return: False

Enquiry: Would you say CG T56G T57G shows relative integration efficiency (log2) at minimum -0.4?
Return: False

Enquiry: Would you say CG G26C shows relative integration efficiency (log2) at minimum -0.4?
Return: False

Enquiry: Would you say CG T112A T113A T114A G115C shows relative integration efficiency (log2) at minimum -0.4?
Return: False

Enquiry: Would you say CG C61A shows relative integration efficiency (log2) at minimum -0.4?
Return: True

Enquiry: Would you say CG T25A G26C shows relative integration efficiency (log2) at minimum -0.4?
Return: False

Enquiry: Would you say CG C61A A62C shows relative integration efficiency (log2) at minimum -0.4?
Return: True

Enquiry: Would you say CG C60T shows relative integration efficiency (log2) at minimum -0.4?
Return: True

Enquiry: Would you say TA A16C G24T T30A T76A T78G C87A A96C T110A T113A shows relative integration efficiency (log2) at minimum -0.4?
Return: True

Enquiry: Would you say CG A44G shows relative integration efficiency (log2) at minimum -0.4?
Return: True

Enquiry: Would you say AG A83C T84G T86G shows relative integration efficiency (log2) at minimum -0.4?
Return: False

Enquiry: Would you say CG C68A A69C A70C C71A shows relative integration efficiency (log2) at minimum -0.4?
Return: False

Enquiry: Would you say TA G24A T30A T76A A77G C87T A96C T110A T113A shows relative integration efficiency (log2) at minimum -0.4?
Return: True

Enquiry: Would you say CG A50T G51C shows relative integration efficiency (log2) at minimum -0.4?
Return: False

Enquiry: Would you say CC A22T A23T G24C T25A T76A A77T T78A T79A A102T T104A T105A shows relative integration efficiency (log2) at minimum -0.4?
Return: False

Enquiry: Would you say CG T86A C87G A88T C89G shows relative integration efficiency (log2) at minimum -0.4?
Return: True

Enquiry: Would you say CG A59T C60G C61G A62T shows relative integration efficiency (log2) at minimum -0.4?
Return: True

Enquiry: Would you say TA A16C G24T T30A A70C T76A T86G A96C T110A T113A shows relative integration efficiency (log2) at minimum -0.4?
Return: True

Enquiry: Would you say CG A36C A37C shows relative integration efficiency (log2) at minimum -0.4?
Return: True

Enquiry: Would you say CG C60G C61G shows relative integration efficiency (log2) at minimum -0.4?
Return: True

Enquiry: Would you say CG C87G shows relative integration efficiency (log2) at minimum -0.4?
Return: True

Enquiry: Would you say CG A54T shows relative integration efficiency (log2) at minimum -0.4?
Return: True

Enquiry: Would you say TG G24A T30A T76A T78G C87A shows relative integration efficiency (log2) at minimum -0.4?
Return: True

Enquiry: Would you say CG A93C C94A A95C A96C shows relative integration efficiency (log2) at minimum -0.4?
Return: False

Enquiry: Would you say TA A22T G24T T31C A33C T76A T78A T84A C87A T104G T113A shows relative integration efficiency (log2) at minimum -0.4?
Return: True

Enquiry: Would you say CG T5G shows relative integration efficiency (log2) at minimum -0.4?
Return: True

Enquiry: Would you say CG A33C shows relative integration efficiency (log2) at minimum -0.4?
Return: True

Enquiry: Would you say TA T76A T78A T84A C87A A96C T110A T113A shows relative integration efficiency (log2) at minimum -0.4?
Return: True

Enquiry: Would you say TA A16C G24T T30A T76A A77G C87T A96C T112G T113C shows relative integration efficiency (log2) at minimum -0.4?
Return: True

Enquiry: Would you say CG G51T shows relative integration efficiency (log2) at minimum -0.4?
Return: True

Enquiry: Would you say TA A16C G24T T32G A33C A70C T76A T86G T104A T110A T113A shows relative integration efficiency (log2) at minimum -0.4?
Return: False

Enquiry: Would you say CG A47G T48G C52T A53G C55G T56C T57G A58C C60A A62G A66T A67T shows relative integration efficiency (log2) at minimum -0.4?
Return: False

Enquiry: Would you say TG A16C G24T T30A A70C T76A T86G shows relative integration efficiency (log2) at minimum -0.4?
Return: True

Enquiry: Would you say TA A23G G24T A33T A70C T76A T86G A96C T110A T113A shows relative integration efficiency (log2) at minimum -0.4?
Return: True

Enquiry: Would you say "AG" shows relative integration efficiency (log2) at minimum -0.4?
Return: True

Enquiry: Would you say CG A23T G24C T25A G26C shows relative integration efficiency (log2) at minimum -0.4?
Return: False

Enquiry: Would you say CG T41G T42G shows relative integration efficiency (log2) at minimum -0.4?
Return: True

Enquiry: Would you say CG G80C A81T T82A A83T shows relative integration efficiency (log2) at minimum -0.4?
Return: False

Enquiry: Would you say CG C63T shows relative integration efficiency (log2) at minimum -0.4?
Return: True

Enquiry: Would you say CG A19G shows relative integration efficiency (log2) at minimum -0.4?
Return: True

Enquiry: Would you say CG G51T C52A shows relative integration efficiency (log2) at minimum -0.4?
Return: True

Enquiry: Would you say CG C71T shows relative integration efficiency (log2) at minimum -0.4?
Return: False

Enquiry: Would you say CG C71G C72G A73T T74A shows relative integration efficiency (log2) at minimum -0.4?
Return: False

Enquiry: Would you say CG A95T shows relative integration efficiency (log2) at minimum -0.4?
Return: False

Enquiry: Would you say CG A64C A65C shows relative integration efficiency (log2) at minimum -0.4?
Return: True

Enquiry: Would you say TA G24A T30A T76A A77G C87T A102T T111C T113C shows relative integration efficiency (log2) at minimum -0.4?
Return: True

Enquiry: Would you say TG A16C G24T T30A T76A T78A T84A C87A shows relative integration efficiency (log2) at minimum -0.4?
Return: True

Enquiry: Would you say CG T120A shows relative integration efficiency (log2) at minimum -0.4?
Return: True

Enquiry: Would you say CG T111G T112G T113G T114G shows relative integration efficiency (log2) at minimum -0.4?
Return: False

Enquiry: Would you say CG T12A shows relative integration efficiency (log2) at minimum -0.4?
Return: True

Enquiry: Would you say CG G7C T8A T9A G10C shows relative integration efficiency (log2) at minimum -0.4?
Return: False

Enquiry: Would you say TA A70C T76A T86G A96C T112G T113C shows relative integration efficiency (log2) at minimum -0.4?
Return: True

Enquiry: Would you say TA T76A T78G C87A A102T T111C T113C shows relative integration efficiency (log2) at minimum -0.4?
Return: True

Enquiry: Would you say CA A96C T110A T113A shows relative integration efficiency (log2) at minimum -0.4?
Return: True

Enquiry: Would you say CG A47C T48G shows relative integration efficiency (log2) at minimum -0.4?
Return: False

Enquiry: Would you say CG T57C shows relative integration efficiency (log2) at minimum -0.4?
Return: False

Enquiry: Would you say TA A70C T76A T84A C87A A102T T111C T113C shows relative integration efficiency (log2) at minimum -0.4?
Return: True

Enquiry: Would you say GG T31A T32A A33T T86A C87G T111A T112A T113A shows relative integration efficiency (log2) at minimum -0.4?
Return: False

Enquiry: Would you say TA A16C G24T T30A T76A T78G C87A T104A T110A T113A shows relative integration efficiency (log2) at minimum -0.4?
Return: True

Enquiry: Would you say CG T25G G26T A27C T28G shows relative integration efficiency (log2) at minimum -0.4?
Return: False

Enquiry: Would you say CG A34C T35G T39C T41A T45A G51T C52A A53G A54G C60T A62G C63A shows relative integration efficiency (log2) at minimum -0.4?
Return: True

Data provenance is the supplement of paper PMC10201428.
